Documented IC50 across a set of compounds
- target.entity: Human full-length Hsp90 (Homo sapiens, UniProt P08238)
- Construct: E. coli expressed human full-length HSP90 protein, purified >95%; made in house; host or cells: E. coli
- Sequence (P08238 whole entry): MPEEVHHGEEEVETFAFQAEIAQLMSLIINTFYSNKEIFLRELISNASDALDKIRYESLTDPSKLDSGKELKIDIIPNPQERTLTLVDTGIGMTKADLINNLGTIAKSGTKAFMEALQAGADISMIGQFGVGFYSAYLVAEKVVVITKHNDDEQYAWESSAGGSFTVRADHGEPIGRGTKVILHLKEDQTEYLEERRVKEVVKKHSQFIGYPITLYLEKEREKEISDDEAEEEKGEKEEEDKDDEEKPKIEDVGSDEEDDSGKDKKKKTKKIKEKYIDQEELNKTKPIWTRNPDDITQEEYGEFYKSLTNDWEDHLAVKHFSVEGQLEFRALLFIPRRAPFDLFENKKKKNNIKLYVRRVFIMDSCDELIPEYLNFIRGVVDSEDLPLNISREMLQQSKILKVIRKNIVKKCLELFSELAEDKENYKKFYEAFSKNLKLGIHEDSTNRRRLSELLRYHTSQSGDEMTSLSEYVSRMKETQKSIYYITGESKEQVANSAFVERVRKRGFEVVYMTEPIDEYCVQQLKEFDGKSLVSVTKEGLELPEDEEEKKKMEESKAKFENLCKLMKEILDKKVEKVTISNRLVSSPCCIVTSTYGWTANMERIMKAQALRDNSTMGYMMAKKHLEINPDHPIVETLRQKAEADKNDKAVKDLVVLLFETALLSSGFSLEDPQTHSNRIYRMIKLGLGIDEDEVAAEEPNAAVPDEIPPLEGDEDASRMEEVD
- test.protocol: Fluorescence polarization assay (competitive binding to HSP90, probe RBT0045864-FAM)
- condition: fluorescence polarization assay, activity range; read-out: Hsp90 FP IC50
reported.property: IC50

compound	reported.property	value.measured
CS(=O)(=O)c1ccc(CNC(=O)c2cc3c(-c4ccc(Cl)cc4Cl)nc(N)nc3s2)cc1 [Example 117]	IC50	< 10 µM
CCOC(=O)c1cc2c(-c3ccc(OCC)cc3)nc(N)nc2s1 [Example 8]	IC50	< 10 µM
CCOC(=O)CSc1nc(N)nc2sc(C(=O)OCC)cc12 [Example 20]	IC50	> 10 µM
CCOC(=O)c1cc2c(-c3ccc(C(F)(F)F)cc3)nc(N)nc2s1 [Example 2]	IC50	> 10 µM
CCCNC(=O)c1cc2c(-c3ccccc3)nc(N)nc2s1 [Example 47]	IC50	< 10 µM

---

- target.entity: Human full-length Hsp90 (Homo sapiens, UniProt P08238)
- Construct: E. coli expressed human full-length HSP90 protein, purified >95%; made in house; host or cells: E. coli
- test.protocol: Fluorescence polarization assay (competitive binding to HSP90, probe RBT0045864-FAM)
- condition: fluorescence polarization assay, activity range; read-out: Hsp90 FP IC50
pIC50: −log10 of the molar value.

compound	pIC50
Nc1nc(-c2ccc(Cl)cc2Cl)c2cc(C(=O)Nc3ccccc3)sc2n1	> 5.00
CCNC(=O)c1cc2c(-c3cc(OCC(=O)N4CCOCC4)c(Cl)cc3Cl)nc(N)nc2s1	> 5.00
CCNC(=O)c1cc2c(-c3cc(CNC4CC4)ccc3C)nc(N)nc2s1	> 5.00
CCNC(=O)c1cc2c(-c3cc(OCCN4CCC(F)CC4)c(Cl)cc3Cl)nc(N)nc2s1	> 5.00
CCOC(=O)c1cc2c(C(=O)c3ccc(OC)c(F)c3)nc(N)nc2s1	> 5.00
Nc1nc(-c2ccc(Cl)cc2Cl)c2cc(C(=O)NCCS(N)(=O)=O)sc2n1	> 5.00
CCCN(C)C(=O)c1cc2c(-c3ccc(C)cc3C)nc(N)nc2s1	< 5.00
CCOC(=O)c1cc2c(C(=O)c3cc(C)ccc3C)nc(N)nc2s1	> 5.00
Cc1ccc(-c2nc(N)nc3sc(C(=O)Nc4ccccc4)cc23)c(C)c1	> 5.00
Cc1c(C(N)=O)sc2nc(N)nc(-c3ccccc3)c12	< 5.00
CCOC(=O)c1cc2c(/C=C/c3ccccc3)nc(N)nc2s1	> 5.00
CCCCNC(=O)c1cc2c(-c3ccccc3)nc(N)nc2s1	< 5.00
CCNC(=O)c1cc2c(-c3cc(CNCCO)ccc3C)nc(N)nc2s1	> 5.00
CCOC(=O)c1cc2c(C(C)(O)c3ccc4c(c3)OCO4)nc(N)nc2s1 (stereo not shown)	> 5.00
Nc1nc(-c2ccccc2)c2cc(C(=O)N3CCOCC3)sc2n1	< 5.00
CCNC(=O)c1cc2c(OCc3ccccc3)nc(N)nc2s1	< 5.00
CCNC(=O)c1cc2c(-c3cc(CNCc4cccs4)c(C)cc3C)nc(N)nc2s1	> 5.00
Nc1nc(-c2ccc(Cl)cc2Cl)c2cc(C(=O)NC3CCCC3)sc2n1	> 5.00
CCOC(=O)c1cc2c(-c3cc(C)c(Br)cc3C)nc(N)nc2s1	> 5.00
Cc1ccc(-c2nc(N)nc3sc(C(=O)NCCCN(C)C)cc23)c(C)c1	> 5.00
C=C(c1ccccc1)c1nc(N)nc2sc(C(=O)NCC)cc12	> 5.00
Nc1nc(-c2ccccc2)c2cc(C(=O)NCCCO)sc2n1	> 5.00
CCOC(=O)c1cc2c(-c3cccc(C)c3C)nc(N)nc2s1	> 5.00
Nc1nc(-c2ccc(Cl)cc2Cl)c2cc(C(=O)NCc3ccc(S(N)(=O)=O)cc3)sc2n1	> 5.00
CC(C)NC(=O)c1cc2c(-c3ccccc3)nc(N)nc2s1	> 5.00
